Field: RLU. Provide a value for each of the compounds that follow.
experimental.target: human TAS2R1 (Homo sapiens, UniProt Q9NYW7)
Construct: expressed in transfected cells; host or cells: HEK293T-Gα16gust44
Sequence (Q9NYW7 whole entry): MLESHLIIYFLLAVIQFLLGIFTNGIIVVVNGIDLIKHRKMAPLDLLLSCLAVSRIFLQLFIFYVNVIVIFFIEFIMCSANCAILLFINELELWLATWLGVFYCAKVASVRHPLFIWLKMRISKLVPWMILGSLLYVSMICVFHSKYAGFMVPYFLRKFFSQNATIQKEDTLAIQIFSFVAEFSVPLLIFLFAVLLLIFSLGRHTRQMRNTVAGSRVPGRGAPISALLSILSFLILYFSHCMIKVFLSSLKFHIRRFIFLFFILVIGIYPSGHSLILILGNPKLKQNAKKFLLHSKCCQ
assay.explanation: Calcium imaging assay (FLIPR), HEK293T-Gα16gust44 cells transfected with human TAS2R1
Assay type: cell-based
study.conditions: Time 30.796 s
Answers are plain numbers, in RLU.

Here is how some compounds turned out for RLU.
C[C@H](CCC(=O)O)[C@H]1CC[C@H]2[C@@H]3[C@@H](O)C[C@@H]4C[C@H](O)CC[C@]4(C)[C@H]3CC[C@]12C 471.987
C[C@H](CCC(=O)O)[C@H]1CC[C@H]2[C@@H]3[C@H](O)C[C@@H]4C[C@H](O)CC[C@]4(C)[C@H]3C[C@H](O)[C@]12C 414.499
C[C@H](CCC(=O)O)[C@H]1CC[C@H]2[C@@H]3CC[C@@H]4C[C@H](O)CC[C@]4(C)[C@H]3CC[C@]12C 381.71

Now for a further compound.
Enquiry: Name the reported RLU value associated with the compound `C[C@H](CCC(=O)O)[C@H]1CC[C@H]2[C@@H]3[C@H](O)C[C@@H]4C[C@H](O)CC[C@]4(C)[C@H]3CC[C@]12C`
Return: 521.85
